Values were extracted from patent US7074789B2.

For each record, write down the corresponding pIC50.
Target: Itk (Homo sapiens)
Construct: Kinases are expressed as either kinase domains or full length constructs; made in house
Sequence (Q08881 1-620): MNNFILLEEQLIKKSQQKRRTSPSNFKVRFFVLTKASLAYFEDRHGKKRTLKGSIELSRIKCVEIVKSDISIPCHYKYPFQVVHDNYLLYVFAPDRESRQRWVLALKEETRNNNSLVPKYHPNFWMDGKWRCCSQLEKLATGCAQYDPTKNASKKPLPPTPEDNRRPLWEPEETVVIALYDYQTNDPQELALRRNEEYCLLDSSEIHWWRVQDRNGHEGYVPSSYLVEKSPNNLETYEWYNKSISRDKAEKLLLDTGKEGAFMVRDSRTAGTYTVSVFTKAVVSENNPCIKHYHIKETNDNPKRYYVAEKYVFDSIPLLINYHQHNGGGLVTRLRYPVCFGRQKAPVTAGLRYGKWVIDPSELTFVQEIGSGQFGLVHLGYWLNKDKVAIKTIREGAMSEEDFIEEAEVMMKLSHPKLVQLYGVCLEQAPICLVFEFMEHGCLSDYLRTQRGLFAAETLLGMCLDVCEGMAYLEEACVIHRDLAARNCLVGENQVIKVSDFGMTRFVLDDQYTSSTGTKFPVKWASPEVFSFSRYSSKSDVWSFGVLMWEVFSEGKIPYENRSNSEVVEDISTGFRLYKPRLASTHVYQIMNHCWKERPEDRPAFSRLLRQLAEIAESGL
Assay: Kinase inhibition assay (33P transfer), Itk
Format: biochemical
Details: read-out: Itk-1
pIC50: −log10 of the molar value.

I'd like to know its pIC50. The compound in question is COc1cc(Nc2ncnc(-c3cccnc3Cl)n2)cc(OC)c1OC
< 4.92

I'd like to know its pIC50. The compound in question is NC(=O)Cc1cccc(Nc2ncnc(-n3c(N)nc4ccccc43)n2)c1
5.18 to 5.95

I'd like to know its pIC50. The compound in question is CNS(=O)(=O)Cc1ccc(Nc2ncnc(Nc3ccc4c(cnn4Cc4ccccc4)c3)n2)cc1
5.32 to 6.10

I'd like to know its pIC50. The compound in question is CN(c1cccc(Cl)c1)c1ncnc(Nc2cccc(CC(=O)O)c2)n1
< 4.91

I'd like to know its pIC50. The compound in question is COc1cc(Nc2ncnc(Nc3cccc4ncccc34)n2)cc(OC)c1OC
5.23 to 6.00

I'd like to know its pIC50. The compound in question is C=CCNc1ncccc1-c1ncnc(Nc2cc(OC)c(OC)c(OC)c2)n1
< 4.94

I'd like to know its pIC50. The compound in question is COc1cc(Nc2ncnc(Nc3cc(-c4cccc(C)c4)n[nH]3)n2)cc(OC)c1OC
5.26 to 6.03

I'd like to know its pIC50. The compound in question is CN(c1ccccc1)c1ncnc(-n2c(N)nc3ccccc32)n1
< 4.85

I'd like to know its pIC50. The compound in question is COc1ccc(Nc2ncnc(N(C)c3cccc(Cl)c3)n2)cc1
< 4.88
